Listing of recorded DC50 by entry.
biological target: Helios (Homo sapiens, UniProt Q96SW2+Q9UKS7); construct: fluorescently labelled antibodies against Helios and Ikaros; endogenous in cells; host or cells: Jurkat cells; experiment: Helios Cellular Degradation Assay (flow cytometry, Helios-PE antibody staining, 72 h); type: cell-based; conditions: Jurkat cells, 72 h incubation, flow cytometry
Sequence (Q9UKS7 whole entry): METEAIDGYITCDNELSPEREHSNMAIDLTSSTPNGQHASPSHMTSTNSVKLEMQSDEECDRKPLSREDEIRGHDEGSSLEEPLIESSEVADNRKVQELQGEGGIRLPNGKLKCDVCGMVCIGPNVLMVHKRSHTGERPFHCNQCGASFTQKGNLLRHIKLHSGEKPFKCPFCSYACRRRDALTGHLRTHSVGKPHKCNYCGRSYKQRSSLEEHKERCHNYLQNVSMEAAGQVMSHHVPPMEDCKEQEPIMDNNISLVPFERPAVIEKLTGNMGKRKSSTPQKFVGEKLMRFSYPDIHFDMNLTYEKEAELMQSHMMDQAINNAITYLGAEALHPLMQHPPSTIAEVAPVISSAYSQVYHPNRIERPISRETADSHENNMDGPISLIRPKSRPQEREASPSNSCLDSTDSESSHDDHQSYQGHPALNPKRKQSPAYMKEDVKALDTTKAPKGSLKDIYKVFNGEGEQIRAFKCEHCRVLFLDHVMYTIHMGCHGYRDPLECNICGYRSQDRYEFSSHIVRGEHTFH
Sequence (Q96SW2 whole entry): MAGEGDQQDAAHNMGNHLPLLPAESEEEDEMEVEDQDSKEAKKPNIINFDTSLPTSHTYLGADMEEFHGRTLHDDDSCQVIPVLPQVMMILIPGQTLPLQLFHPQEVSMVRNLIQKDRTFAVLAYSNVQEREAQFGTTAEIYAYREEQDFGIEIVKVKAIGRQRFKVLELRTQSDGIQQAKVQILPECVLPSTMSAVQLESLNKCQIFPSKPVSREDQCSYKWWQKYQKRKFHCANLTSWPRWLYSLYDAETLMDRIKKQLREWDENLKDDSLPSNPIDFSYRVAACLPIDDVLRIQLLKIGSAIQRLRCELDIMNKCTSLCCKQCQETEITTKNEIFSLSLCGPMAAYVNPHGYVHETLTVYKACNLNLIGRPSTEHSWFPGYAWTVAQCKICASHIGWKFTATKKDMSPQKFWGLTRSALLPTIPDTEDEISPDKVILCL
Sequence (Q16531 whole entry partner): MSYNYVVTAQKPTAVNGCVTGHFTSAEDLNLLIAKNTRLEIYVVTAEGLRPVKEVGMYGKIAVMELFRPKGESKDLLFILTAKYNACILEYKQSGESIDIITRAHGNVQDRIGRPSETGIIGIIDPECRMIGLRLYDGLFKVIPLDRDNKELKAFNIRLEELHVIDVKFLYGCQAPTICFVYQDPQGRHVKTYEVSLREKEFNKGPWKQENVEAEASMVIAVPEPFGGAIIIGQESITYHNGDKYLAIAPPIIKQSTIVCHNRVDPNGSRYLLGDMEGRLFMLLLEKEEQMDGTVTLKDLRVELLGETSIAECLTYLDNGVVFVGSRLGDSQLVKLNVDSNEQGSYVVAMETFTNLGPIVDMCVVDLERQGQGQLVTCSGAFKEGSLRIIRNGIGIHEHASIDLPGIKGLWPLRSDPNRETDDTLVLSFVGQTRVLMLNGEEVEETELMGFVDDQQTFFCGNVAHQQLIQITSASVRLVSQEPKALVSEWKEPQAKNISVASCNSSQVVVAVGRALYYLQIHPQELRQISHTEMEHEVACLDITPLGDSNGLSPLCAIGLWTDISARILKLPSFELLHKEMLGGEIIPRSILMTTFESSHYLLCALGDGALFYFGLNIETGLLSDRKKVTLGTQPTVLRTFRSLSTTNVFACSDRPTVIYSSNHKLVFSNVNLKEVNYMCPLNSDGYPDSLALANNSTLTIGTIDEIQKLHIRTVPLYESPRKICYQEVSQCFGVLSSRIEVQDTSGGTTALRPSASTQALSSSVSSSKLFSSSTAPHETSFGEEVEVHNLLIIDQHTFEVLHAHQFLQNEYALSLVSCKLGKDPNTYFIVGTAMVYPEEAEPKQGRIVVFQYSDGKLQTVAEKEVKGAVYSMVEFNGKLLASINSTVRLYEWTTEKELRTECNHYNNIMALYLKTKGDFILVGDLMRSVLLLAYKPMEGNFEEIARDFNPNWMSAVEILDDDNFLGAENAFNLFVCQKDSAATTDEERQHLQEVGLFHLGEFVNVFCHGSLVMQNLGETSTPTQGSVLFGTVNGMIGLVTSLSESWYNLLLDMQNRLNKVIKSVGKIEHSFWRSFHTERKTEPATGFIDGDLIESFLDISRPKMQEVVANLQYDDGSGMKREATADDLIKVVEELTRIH
Just the number please, in nM, no unit attached.

Kindly note the recorded DC50 for CN(CCc1ccccn1)Cc1ccnc(-c2ccc3c(c2)CN(C2CCC(=O)NC2=O)C3=O)c1 (stereo not shown) [Example 16] , which is 788

The compound listed as O=C1CCC(N2Cc3cc(-c4cc(CN5CCC(n6c(=O)[nH]c7ccccc76)CC5)ccn4)ccc3C2=O)C(=O)N1 (stereo not shown) [Example 11] shows DC50 equal to 573
